subject_of_test: NHERF2_2, Q15599
Sequence (Q15599 142-238): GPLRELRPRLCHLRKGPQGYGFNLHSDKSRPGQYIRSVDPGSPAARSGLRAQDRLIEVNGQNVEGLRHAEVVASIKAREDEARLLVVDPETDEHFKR
method_notes: holdup assay
Parameters: key: below the threshold = too weak to quantify, mostly under pKd 3.1 to 4
condition: plain residues with an end cap or a label only (N-terminal biotin on a linker: ado-ado)
Tick YES if pKd is 4 or greater. Tick NO if pKd is less than 4.

# binder, cat
rows = [
    ("PYSESDDDWC [CACNA1A, O00555]", "NO"),
    ("NVYGIESVKI [GRIA2, P42262]", "NO"),
    ("EDGESWEYQI [TRPV6, Q9H1D0]", "NO"),
    ("PSVGSKKTVL [REELD1, A0A1B0GV85]", "NO"),
    ("RSSGGDDFWF [KCNV1, Q6PIU1]", "YES"),
]
